# System: Trypanosoma brucei rhodesiense
# protocol summary: Antitrypanosomal activity against Trypanosoma brucei rhodesiense STIB900
# Assay type: functional, organism-based
quantity kind: pIC50
The value called pIC50 is obtained by taking minus log10 of the concentration in mol/L.

- C=CC1=C[C@@H]2[C@@H]3[C@]4(C(C)C)C(=O)[C@]5(CC[C@H]6C(C)(C)CCC[C@]67C[C@]25[C@@](OC[C@@]3(C)O)(O7)C4=O)C1: 5.36

IN: Please report the recorded pIC50 for CC1=CC(=O)[C@@]23CC[C@@H]4C(C)(C)CCC[C@@]45C[C@]24[C@@H]1C[C@H]1C(C)(C)OC(=C(C(C)C)C3=O)[C@]14O5 .
OUT: 4.80

###

# protocol summary: Selectivity index, ratio of IC50 for rat L6 cells to IC50 for Trypanosoma brucei rhodesiense STIB900
# Assay type: toxicity, cell-based
# measurement parameters: L6 cells versus Trypanosoma brucei rhodesiense STIB900, read-out: Ratio IC50
selectivity ratio values by entry
Please reply with the number alone, leaving off any unit.

• CC1=CC(=O)[C@@]23CC[C@@H]4C(C)(C)CCC[C@@]45C[C@]24[C@@H]1C[C@H]1C(C)(C)OC(=C(C(C)C)C3=O)[C@]14O5 [PEROVSKONE B] = 0.78

The record that follows has no selectivity ratio shown yet.
IN: Please report the recorded selectivity ratio for C=CC1=C[C@@H]2[C@@H]3[C@]4(C(C)C)C(=O)[C@]5(CC[C@H]6C(C)(C)CCC[C@]67C[C@]25[C@@](OC[C@@]3(C)O)(O7)C4=O)C1 [SALVADIONE C] .
OUT: 43.2

###

# Tested on: L6
# protocol summary: Cytotoxicity against rat L6 cells
# Format: cell-based
quantity kind: pIC50
The value called pIC50 is obtained by taking minus log10 of the concentration in mol/L.

IN: Please report the recorded pIC50 for CC1=CC(=O)[C@@]23CC[C@@H]4C(C)(C)CCC[C@@]45C[C@]24[C@@H]1C[C@H]1C(C)(C)OC(=C(C(C)C)C3=O)[C@]14O5 .
OUT: 5.24
